- system: T1, human CD81 mutant T163A (human, UniProt P60033 1-236, limits assumed)
- T1 construct: as m30; not shown: C-terminal V5 and 6xHis tags
- T1 sequence: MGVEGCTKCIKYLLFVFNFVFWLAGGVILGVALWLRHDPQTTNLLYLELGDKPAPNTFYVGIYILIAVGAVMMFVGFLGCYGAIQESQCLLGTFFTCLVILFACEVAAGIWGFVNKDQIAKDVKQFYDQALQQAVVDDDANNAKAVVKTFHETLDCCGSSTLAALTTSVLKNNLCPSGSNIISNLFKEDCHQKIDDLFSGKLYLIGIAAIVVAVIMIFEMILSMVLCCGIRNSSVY
- protocolDetails: ELISA
propertyLabel: relative binding affinity

Reported relative binding affinity, binder 002-A07 N113G (antibody, human IgG4 S228P, lambda, V domains shown, IgG4 S228P; glycosylation site mutant of 002-A07 VL) VH: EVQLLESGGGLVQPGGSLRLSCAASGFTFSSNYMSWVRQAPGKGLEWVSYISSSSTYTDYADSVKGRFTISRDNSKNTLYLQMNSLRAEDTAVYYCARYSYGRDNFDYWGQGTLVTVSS VL: QSVLTQPPSASGTPGQRVTISCTGSTSNIGAGYDTHWYQQLPGTAPKLLIYGNSNRPSGVPDRFSGSKSGTSASLAISGLRSEDEADYYCQSYDTGLSVWVFGGGTKLTVLG : ____
< 20%
